- measured-target: UniProt P98170
- Sequence (P98170 whole entry, the tested form may be a part): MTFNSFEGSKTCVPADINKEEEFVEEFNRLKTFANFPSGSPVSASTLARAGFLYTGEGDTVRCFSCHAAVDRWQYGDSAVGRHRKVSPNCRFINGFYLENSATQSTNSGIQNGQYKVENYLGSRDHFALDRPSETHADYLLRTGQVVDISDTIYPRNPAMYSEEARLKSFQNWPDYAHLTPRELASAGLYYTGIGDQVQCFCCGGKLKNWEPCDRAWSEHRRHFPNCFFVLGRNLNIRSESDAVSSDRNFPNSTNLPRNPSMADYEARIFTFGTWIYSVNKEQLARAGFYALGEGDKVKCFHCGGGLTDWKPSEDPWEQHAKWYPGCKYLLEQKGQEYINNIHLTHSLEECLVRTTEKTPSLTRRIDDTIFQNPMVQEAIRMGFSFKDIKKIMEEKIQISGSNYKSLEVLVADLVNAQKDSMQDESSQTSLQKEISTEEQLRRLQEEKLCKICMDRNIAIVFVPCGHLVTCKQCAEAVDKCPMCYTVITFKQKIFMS
- method-summary: Binding affinity to XIAP-BIR3 (unknown origin) (124 to 240 residues) expressed in Escherichia coli BL21-Gold (DE3) by surface plasmon resonance assay
Square brackets hold non-standard residues; d marks the D form. Peptide text beside a SMILES is read from it. Dip = N[C@H](C(=O)O)C(c1ccccc1)c1ccccc1; Chg = N[C@H](C(=O)O)C1CCCCC1; NMeA = CN[C@@H](C)C(=O)O
endpoint-name: Kd (nM)
Use nM as the unit, but write only the number.

Query :: Enter reported Kd observed with UniProt P98170 for CN[C@@H](C)C(=O)N[C@H](C(=O)N1CCC[C@H]1C(=O)N[C@H](C(=O)OC)C(c1ccccc1)c1ccccc1)C1CCCCC1 (H-[NMeA][Chg]P[Dip]-OMe)
Result :: 16

----------
- measured-target: Leucine-rich repeat serine/threonine-protein kinase 2 (Homo sapiens, UniProt Q5S007, G2019S)
- Sequence (Q5S007 whole entry G2019S): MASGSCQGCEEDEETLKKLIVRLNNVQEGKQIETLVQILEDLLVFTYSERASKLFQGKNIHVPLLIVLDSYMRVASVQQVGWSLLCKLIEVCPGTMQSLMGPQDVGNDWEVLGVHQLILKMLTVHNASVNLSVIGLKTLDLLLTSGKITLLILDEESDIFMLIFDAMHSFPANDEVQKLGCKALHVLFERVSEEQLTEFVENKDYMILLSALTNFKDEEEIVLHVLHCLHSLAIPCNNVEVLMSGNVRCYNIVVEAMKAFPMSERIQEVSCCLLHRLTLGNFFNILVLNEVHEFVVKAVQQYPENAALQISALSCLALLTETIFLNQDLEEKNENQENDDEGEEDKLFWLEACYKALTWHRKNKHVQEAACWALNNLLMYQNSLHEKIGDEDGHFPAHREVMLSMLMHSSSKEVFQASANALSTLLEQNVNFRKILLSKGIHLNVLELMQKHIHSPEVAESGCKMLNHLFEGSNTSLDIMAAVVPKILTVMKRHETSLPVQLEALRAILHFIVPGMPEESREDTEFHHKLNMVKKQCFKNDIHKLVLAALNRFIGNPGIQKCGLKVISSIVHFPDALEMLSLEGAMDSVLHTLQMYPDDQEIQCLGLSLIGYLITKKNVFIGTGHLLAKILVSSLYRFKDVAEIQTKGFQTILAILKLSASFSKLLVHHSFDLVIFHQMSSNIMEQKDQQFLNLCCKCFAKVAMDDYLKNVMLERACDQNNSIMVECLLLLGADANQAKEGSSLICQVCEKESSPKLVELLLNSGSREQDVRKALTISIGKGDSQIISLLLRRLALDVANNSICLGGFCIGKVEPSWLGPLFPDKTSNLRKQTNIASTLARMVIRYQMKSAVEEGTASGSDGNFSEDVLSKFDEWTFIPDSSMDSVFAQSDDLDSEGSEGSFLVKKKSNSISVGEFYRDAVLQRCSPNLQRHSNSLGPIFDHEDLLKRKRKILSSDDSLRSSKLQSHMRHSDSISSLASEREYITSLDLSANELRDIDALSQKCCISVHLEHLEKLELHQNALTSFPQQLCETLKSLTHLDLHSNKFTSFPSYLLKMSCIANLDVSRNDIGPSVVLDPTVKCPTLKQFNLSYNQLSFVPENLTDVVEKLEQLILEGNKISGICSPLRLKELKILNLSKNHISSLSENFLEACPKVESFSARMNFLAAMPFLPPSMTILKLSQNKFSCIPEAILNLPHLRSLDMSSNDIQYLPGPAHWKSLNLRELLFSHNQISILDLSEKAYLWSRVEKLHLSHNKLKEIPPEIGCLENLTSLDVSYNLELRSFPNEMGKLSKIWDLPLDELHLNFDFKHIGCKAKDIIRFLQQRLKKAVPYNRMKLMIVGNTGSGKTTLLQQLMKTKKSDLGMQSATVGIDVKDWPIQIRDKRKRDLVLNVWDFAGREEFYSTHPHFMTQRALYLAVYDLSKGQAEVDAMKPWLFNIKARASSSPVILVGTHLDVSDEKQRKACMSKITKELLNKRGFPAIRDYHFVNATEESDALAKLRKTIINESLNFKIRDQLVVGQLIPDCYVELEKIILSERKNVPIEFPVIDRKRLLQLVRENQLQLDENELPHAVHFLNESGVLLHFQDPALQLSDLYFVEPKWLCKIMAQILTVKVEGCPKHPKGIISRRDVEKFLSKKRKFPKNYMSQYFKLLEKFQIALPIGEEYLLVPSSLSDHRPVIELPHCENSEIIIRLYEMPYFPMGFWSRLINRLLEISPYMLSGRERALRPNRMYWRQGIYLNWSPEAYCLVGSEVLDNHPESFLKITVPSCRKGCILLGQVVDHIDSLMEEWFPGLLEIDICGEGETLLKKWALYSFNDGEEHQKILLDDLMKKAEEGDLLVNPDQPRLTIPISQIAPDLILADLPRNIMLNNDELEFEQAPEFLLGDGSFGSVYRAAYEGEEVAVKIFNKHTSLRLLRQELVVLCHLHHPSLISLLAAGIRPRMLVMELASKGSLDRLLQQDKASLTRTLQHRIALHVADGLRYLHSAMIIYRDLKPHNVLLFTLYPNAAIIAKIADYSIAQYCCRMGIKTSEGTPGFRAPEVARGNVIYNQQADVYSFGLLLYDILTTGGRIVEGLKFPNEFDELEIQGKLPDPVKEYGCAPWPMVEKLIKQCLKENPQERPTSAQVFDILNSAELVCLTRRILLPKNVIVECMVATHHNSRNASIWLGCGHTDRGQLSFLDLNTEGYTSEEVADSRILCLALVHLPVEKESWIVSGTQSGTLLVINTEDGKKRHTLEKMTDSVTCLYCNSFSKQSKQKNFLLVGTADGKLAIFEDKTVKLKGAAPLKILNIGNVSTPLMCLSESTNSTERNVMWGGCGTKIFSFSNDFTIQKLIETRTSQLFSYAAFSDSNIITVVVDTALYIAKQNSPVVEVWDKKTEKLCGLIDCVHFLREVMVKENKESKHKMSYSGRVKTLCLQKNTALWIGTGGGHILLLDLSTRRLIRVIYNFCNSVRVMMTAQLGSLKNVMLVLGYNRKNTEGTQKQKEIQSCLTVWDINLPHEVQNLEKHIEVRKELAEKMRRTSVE
- method-summary: Inhibition of LRRK2 G2019S mutant (unknown origin)
endpoint-name: pKi
Lab note: report pKi as minus log10 of the concentration in molar units, number only.

Query :: Query: pKi; subject: CNc1nc(Nc2cn(C(C)(C)C#N)nc2C)ncc1C(F)(F)F [DNL-201]
Result :: 9.22

Query :: Query: pKi; subject: `CCNc1nc(Nc2cc(F)c(C(=O)N3CCOCC3)cc2OC)ncc1C(F)(F)F`
Result :: 9.00

----------
- measured-target: B-cell lymphoma 6 protein (Homo sapiens, UniProt P41182, C67R/C84N/C8Q)
- method-summary: Inhibition of BCL6 BTB domain (5 to 129 residues) C8Q/C67R/C84N triple mutant (unknown origin) expressed in Escherichia coli BL21(DE3) cells using 5-TAMRA-RSEIISTAPSSWVVPG incubated for 1 hr by fluorescence polarization assay
endpoint-name: IC50 (µM)
Use µM as the unit, but write only the number.

Query :: Query: IC50; subject: `Cc1cc(C)n(-c2ncc(Cl)c(Nc3ccc(Cl)cc3)n2)n1`
Result :: 18

----------
endpoint-name: IC50 (nM)
Use nM as the unit, but write only the number.

Query :: Enter reported IC50 observed with Non-receptor tyrosine-protein kinase TYK2 (Homo sapiens, UniProt P29597) for `C[C@@H]1CCN(C(=O)N2CCCC2)C[C@@H]1N(C)c1ncnc2[nH]ccc12`
Sequence (P29597 whole entry): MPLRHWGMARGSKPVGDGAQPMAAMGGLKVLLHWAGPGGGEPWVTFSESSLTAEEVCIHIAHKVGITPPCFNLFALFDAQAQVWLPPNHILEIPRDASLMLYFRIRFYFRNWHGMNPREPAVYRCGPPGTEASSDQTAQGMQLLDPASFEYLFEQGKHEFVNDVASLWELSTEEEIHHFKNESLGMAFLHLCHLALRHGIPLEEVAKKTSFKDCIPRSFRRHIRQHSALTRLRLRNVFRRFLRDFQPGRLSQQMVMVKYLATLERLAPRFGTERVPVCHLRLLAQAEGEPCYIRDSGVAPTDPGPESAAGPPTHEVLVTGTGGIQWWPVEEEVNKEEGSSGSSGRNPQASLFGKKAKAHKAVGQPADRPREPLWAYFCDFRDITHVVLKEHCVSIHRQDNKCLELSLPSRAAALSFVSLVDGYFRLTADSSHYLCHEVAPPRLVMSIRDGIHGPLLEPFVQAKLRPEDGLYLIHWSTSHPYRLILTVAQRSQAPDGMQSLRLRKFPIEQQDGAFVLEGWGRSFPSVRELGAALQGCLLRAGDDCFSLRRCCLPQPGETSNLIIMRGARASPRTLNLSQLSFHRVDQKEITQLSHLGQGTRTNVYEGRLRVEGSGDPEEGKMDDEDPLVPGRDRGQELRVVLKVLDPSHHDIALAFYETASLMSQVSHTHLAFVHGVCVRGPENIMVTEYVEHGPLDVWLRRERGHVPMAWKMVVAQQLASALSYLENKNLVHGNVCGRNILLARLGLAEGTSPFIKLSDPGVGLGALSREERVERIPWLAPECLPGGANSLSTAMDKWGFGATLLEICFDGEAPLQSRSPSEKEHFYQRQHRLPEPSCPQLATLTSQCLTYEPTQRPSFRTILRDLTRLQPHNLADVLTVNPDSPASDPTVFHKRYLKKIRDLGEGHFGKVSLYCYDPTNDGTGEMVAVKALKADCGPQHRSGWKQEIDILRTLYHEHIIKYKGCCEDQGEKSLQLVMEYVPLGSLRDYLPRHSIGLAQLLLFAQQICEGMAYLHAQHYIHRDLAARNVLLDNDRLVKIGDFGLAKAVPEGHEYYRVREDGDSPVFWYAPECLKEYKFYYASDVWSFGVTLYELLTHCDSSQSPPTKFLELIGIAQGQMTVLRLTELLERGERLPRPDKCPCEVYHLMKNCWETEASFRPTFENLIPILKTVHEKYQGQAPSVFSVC
Result :: 128

----------
- measured-target: Tyrosine-protein kinase JAK2 (Homo sapiens, UniProt O60674)
endpoint-name: IC50 (nM)
Use nM as the unit, but write only the number.

Query :: Query: IC50; subject: `C[C@@H]1CCN(C(=O)N2CCCC2)C[C@@H]1N(C)c1ncnc2[nH]ccc12`
Result :: 7.1
